Source: ChEMBL document CHEMBL1144793

target: Metabotropic glutamate receptor 2 (Rattus norvegicus); test: Antagonist activity at rat mGluR2 assessed as blockade of (1S,3R)-ACPD-induced inhibition of forskolin-stimulated cAMP production; assay type: functional
Sequence (P31421 whole entry): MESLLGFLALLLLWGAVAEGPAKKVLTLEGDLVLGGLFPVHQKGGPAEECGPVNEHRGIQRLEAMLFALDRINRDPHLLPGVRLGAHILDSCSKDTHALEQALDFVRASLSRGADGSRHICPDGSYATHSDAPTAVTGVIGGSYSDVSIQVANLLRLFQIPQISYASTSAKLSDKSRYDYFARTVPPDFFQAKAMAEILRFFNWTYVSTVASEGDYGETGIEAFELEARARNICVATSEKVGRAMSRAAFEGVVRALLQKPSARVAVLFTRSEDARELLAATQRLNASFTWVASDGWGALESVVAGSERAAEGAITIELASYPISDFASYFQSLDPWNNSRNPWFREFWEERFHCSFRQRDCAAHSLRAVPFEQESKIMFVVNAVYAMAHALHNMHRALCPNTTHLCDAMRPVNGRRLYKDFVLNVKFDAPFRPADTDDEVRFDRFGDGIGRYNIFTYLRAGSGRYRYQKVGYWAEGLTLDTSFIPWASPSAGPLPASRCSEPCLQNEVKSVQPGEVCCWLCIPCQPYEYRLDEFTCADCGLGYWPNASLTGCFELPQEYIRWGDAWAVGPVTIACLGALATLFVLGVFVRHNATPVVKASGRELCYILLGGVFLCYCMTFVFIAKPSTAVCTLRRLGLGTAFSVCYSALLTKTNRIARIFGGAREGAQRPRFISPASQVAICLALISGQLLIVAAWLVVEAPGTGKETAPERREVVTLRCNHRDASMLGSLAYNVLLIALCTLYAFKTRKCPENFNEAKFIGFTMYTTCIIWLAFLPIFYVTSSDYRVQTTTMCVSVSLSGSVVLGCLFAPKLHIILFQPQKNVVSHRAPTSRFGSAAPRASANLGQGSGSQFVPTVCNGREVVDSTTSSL
endpoint_label: IC50 (nM)
Record the value in nM, omitting the unit from your answer.

[in] Tell me the measured IC50 of O=C1CC(c2cccc(-n3ccnn3)c2)=Nc2cc(Cl)c(C(F)(F)F)cc2N1 , please.
[out] 116

[in] Tell me the measured IC50 of Cc1cc2c(cc1C(F)(F)F)NC(=O)CC(c1cccc(-n3ccnn3)c1)=N2 , please.
[out] 39

[in] Tell me the measured IC50 of O=C1CC(c2cccc(-n3ccnn3)c2)=Nc2ccc(-c3ccc(F)cc3)cc2N1 , please.
[out] 36

[in] Tell me the measured IC50 of COc1cc2c(cc1C(F)(F)F)NC(=O)CC(c1cccc(-n3ccnn3)c1)=N2 , please.
[out] 74

[in] Tell me the measured IC50 of CC(C)CN(C)c1cc2c(cc1C(F)(F)F)NC(=O)CC(c1cccc(-n3ccnn3)c1)=N2 , please.
[out] 14

[in] Tell me the measured IC50 of CC(C)CNc1cc2c(cc1C(F)(F)F)NC(=O)CC(c1cccc(-n3ccnc3)c1)=N2 , please.
[out] 73

[in] Tell me the measured IC50 of O=C1CC(c2cccc(-n3ccnc3)c2)=Nc2ccc(-c3cc(F)ccc3F)cc2N1 , please.
[out] 17

[in] Tell me the measured IC50 of O=C1CC(c2cccc(-n3ccnc3)c2)=Nc2cc(Cl)c(C(F)(F)F)cc2N1 , please.
[out] 15

[in] Tell me the measured IC50 of O=C1CC(c2cccc(-n3ccnc3)c2)=Nc2ccc(-c3ccc(F)cc3)cc2N1 , please.
[out] 24
